biological target: MAP kinase-activated protein kinase 2 (Homo sapiens, UniProt P49137); test: Inhibition of MK2-mediated HSP27 phosphorylation in IL-1beta stimulated human SW1353 cells incubated for 30 mins prior to IL-1beta-stimulation measured after 27 mins by ELISA
Sequence (P49137 whole entry): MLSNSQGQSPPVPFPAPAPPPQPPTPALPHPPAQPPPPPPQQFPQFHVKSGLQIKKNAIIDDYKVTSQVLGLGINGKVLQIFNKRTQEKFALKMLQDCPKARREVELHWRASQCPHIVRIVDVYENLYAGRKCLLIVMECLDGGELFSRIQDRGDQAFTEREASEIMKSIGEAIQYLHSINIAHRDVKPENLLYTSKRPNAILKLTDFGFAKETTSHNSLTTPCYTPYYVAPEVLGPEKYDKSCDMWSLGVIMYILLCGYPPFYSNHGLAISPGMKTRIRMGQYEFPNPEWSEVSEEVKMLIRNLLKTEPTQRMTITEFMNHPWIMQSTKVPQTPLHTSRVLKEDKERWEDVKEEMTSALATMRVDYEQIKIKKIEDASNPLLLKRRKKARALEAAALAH
value type: EC50 (µM)

See these solved cases before continuing.
* O=C(Nc1ccc(N2CCNCC2)cc1)c1ccc(-c2ccc(Cl)cc2Cl)o1 | 1.6
* O=C(Nc1ccc(N2CCNCC2)cc1)c1cccc(-c2ccc(Cl)cc2)n1 | 3.9
* O=C(Nc1ccc(N2CCNCC2)cc1)c1csc(-c2ccc(Cl)cc2)n1 | 0.9

[A] Cc1cc(Cl)ccc1-c1ccc(C(=O)Nc2ccc(N3CCNCC3)cc2)o1
[B] O=C(Nc1ccc(N2CCNCC2)cc1)c1ccc(-c2ccc(Cl)cc2)o1
IN: Given the listed items, does A or B have the lesser reported EC50? Label of pick, please.
OUT: A

[P] CN1CCN(c2ccc(NC(=O)c3ccc(-c4ccc(Cl)cc4)o3)cc2)CC1
[Q] O=C(Nc1ccc(N2CCNCC2)cc1)c1ccc(-c2ccc(Cl)cc2)s1
[R] COc1ccc(-c2ccc(C(=O)Nc3ccc(N4CCNCC4)cc3)o2)cc1
IN: Order the entries by their reported EC50, beginning at the minimum. Hello, could you send the labels back in the order asked? Thank you.
OUT: Q, R, P
(Q: 5 µM, R: 8 µM, P: 20 µM)
